pIC50 by entry:
target: human alpha1 nicotinic acetylcholine (nACh) receptor (Homo sapiens, UniProt P02708+Q07001); assay: Nicotinic Acetylcholine Receptor Antagonism Assay (IONFlux automated patch clamp); conditions: antagonism of nAChR stimulated with acetylcholine; average if several runs
Sequence (P02708 21-457): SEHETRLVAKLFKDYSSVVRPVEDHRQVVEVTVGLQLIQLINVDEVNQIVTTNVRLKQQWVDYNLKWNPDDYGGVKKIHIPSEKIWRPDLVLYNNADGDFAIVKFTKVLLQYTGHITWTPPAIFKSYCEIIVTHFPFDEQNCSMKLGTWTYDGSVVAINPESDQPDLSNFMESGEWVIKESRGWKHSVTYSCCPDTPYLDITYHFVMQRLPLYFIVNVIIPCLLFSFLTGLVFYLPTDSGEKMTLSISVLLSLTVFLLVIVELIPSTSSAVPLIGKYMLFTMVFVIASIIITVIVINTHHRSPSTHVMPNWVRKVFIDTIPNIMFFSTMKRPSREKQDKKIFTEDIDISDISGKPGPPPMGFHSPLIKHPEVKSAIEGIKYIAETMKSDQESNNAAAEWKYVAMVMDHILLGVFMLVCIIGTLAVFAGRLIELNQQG
Sequence (P11230 24-501 partner): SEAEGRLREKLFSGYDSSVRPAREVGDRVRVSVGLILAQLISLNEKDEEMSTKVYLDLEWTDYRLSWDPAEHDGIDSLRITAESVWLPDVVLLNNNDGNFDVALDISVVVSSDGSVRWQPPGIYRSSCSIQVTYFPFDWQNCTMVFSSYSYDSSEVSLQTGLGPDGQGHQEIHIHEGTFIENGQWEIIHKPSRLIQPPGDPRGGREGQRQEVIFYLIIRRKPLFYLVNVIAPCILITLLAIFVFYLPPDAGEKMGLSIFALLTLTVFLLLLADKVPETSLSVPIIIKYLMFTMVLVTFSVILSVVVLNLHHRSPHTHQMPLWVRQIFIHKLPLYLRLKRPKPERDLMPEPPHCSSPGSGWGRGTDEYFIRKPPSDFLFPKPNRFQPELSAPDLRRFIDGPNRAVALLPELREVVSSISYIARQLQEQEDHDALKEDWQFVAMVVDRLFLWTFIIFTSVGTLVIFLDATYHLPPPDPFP
Sequence (Q07001 22-517): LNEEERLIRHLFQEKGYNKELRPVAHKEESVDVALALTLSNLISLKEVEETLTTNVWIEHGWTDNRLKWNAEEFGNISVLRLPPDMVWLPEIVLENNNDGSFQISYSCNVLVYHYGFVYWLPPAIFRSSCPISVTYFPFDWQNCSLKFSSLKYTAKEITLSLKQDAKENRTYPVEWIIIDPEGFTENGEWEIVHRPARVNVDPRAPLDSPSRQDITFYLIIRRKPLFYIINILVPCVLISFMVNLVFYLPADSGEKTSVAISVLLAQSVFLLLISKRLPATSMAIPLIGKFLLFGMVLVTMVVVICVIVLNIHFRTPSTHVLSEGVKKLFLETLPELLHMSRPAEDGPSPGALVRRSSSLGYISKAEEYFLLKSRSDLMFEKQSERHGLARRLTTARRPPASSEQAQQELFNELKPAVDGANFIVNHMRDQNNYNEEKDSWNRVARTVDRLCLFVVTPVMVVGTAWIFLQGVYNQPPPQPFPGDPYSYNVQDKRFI
pIC50: −log10 of the molar value. Where a name gives a salt, the structure may show the parent alone.

Previously resolved entries follow.
CO[C@@H]1COCC[C@@H]1N[C@@H]1CC[C@](COCCNC(=O)[C@H]2CC[C@H](NC(=O)CCCO[C@H]3CC[C@H](OCCNC(=O)[C@H]4CC(=O)N(C)[C@@H]4c4cccnc4)CC3)CC2)(C(=O)N2CCc3ncc(C(F)(F)F)cc3C2)C1    < 4.00
CO[C@@H]1COCC[C@@H]1N[C@@H]1CC[C@](CCCCNC(=O)CCOCCOCCO[C@H]2CC[C@H](OCCNC(=O)[C@H]3CC(=O)N(C)[C@@H]3c3cccnc3)CC2)(C(=O)N2CCc3ncc(C(F)(F)F)cc3C2)C1 [Example 21, Formic acid salt]    < 5.00
CO[C@@H]1COCC[C@@H]1N(CCCNC(=O)[C@H]1CC[C@H](NC(=O)CCCO[C@H]2CC[C@H](OCCNC(=O)[C@H]3CC(=O)N(C)[C@@H]3c3cccnc3)CC2)CC1)[C@@H]1CC[C@@](C(=O)N2CCc3ncc(C(F)(F)F)cc3C2)(C(C)C)C1    < 4.00
CO[C@@H]1COCC[C@@H]1N[C@@H]1CC[C@](CCCNC(=O)CCOCCOCCOCCOCCOCCOCCOCCOCCOCCOCCOCCOCCNC(=O)[C@H]2CC(=O)N(C)[C@@H]2c2cccnc2)(C(=O)N2CCc3ncc(C(F)(F)F)cc3C2)C1    < 4.00

Now examine the next entry.
// recorded pIC50 for `CO[C@@H]1COCC[C@@H]1N[C@@H]1CC[C@](CCCCNC(=O)[C@H]2CC[C@H](NC(=O)CCCO[C@H]3CC[C@H](OCCNC(=O)[C@H]4CC(=O)N(C)[C@@H]4c4cccnc4)CC3)CC2)(C(=O)N2CCc3ncc(C(F)(F)F)cc3C2)C1` : 4.03

* * *

Molecular target: CHOK1 cells engineered to overexpress human CCR2 (Homo sapiens, UniProt P41597)
Construct: expressed in transfected cells; host or cells: CHOK1
Assay: Antibody Dependent Cellular Cytotoxicity (ADCC) Reporter Assay
Type: cell-based
Conditions: with anti-cotinine antibody (human IgG1 Fc, S239D/I332E); Jurkat FcγRIIIa NFAT-luciferase reporter cells; average if several runs; read-out: ADCC Reporter Assay pEC50 (converted)
Description: […] ARMs compounds of Formula (I) of the invention were tested for ADCC activity in the above assay in or more experimental runs and the results are shown in Table 3 below. […] The pEC50 value is the negative log of the EC50 value, wherein the EC50 value is the half maximal effective concentration measured in molar (M). […]
Where a name gives a salt, the structure may show the parent alone.
EC50 by entry:
Answer format: numeric, nM implied, no suffix.

CO[C@H]1COCC[C@H]1N[C@H]1CC[C@@](CCCNC(=O)[C@H]2CC[C@@H](NC(=O)CCOCCOCCNC(=O)CCNC(=O)[C@H]3CC(=O)N(C)[C@@H]3c3cccnc3)CC2)(C(=O)N2CCc3ncc(C(F)(F)F)cc3C2)C1    3.16
CO[C@@H]1COCC[C@@H]1N[C@@H]1CC[C@](CCCCNC(=O)[C@H]2CC[C@H](NC(=O)CCCO[C@H]3CC[C@H](OCCNC(=O)[C@H]4CC(=O)N(C)[C@@H]4c4cccnc4)CC3)CC2)(C(=O)N2CCc3ncc(C(F)(F)F)cc3C2)C1    2.51
CO[C@@H]1COCC[C@@H]1N[C@@H]1CC[C@@](C(=O)N2Cc3cc(C(F)(F)F)cnc3[C@@H](NC(=O)CCOCCOCCOCCOCCOCCOCCOCCOCCOCCOCCOCCOCCNC(=O)[C@H]3CC(=O)N(C)[C@@H]3c3cccnc3)C2)(C(C)C)C1 (stereo in doubt)    1

Lab entry: CHOK1 cells engineered to overexpress human CCR2 (Homo sapiens, UniProt P41597) assay, molecule CO[C@@H]1COCC[C@@H]1N[C@@H]1CC[C@](CCCCNC(=O)CCOCCOCCO[C@H]2CC[C@H](OCCNC(=O)[C@H]3CC(=O)N(C)[C@@H]3c3cccnc3)CC2)(C(=O)N2CCc3ncc(C(F)(F)F)cc3C2)C1 [Example 21, Formic acid salt] , EC50 = 6.31

Lab entry: CHOK1 cells engineered to overexpress human CCR2 (Homo sapiens, UniProt P41597) assay, molecule CO[C@@H]1COCC[C@@H]1N[C@@H]1CC[C@](CCCNC(=O)[C@H]2CC[C@@H](NC(=O)CCCO[C@H]3CC[C@H](OCCNC(=O)[C@H]4CC(=O)N(C)[C@@H]4c4cccnc4)CC3)CC2)(C(=O)N2CCc3ncc(C(F)(F)F)cc3C2)C1 [Example 6, Formic acid salt] , EC50 = 0.794
